B1: Azoarcus group I ribozyme (parent)
chain: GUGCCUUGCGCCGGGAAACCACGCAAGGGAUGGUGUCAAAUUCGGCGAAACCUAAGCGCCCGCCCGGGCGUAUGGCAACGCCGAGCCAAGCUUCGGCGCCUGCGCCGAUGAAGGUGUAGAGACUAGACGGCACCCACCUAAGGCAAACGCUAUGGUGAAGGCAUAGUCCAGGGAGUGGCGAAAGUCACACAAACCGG

- Variants of: B1
- assay.protocol: reverse-splicing fitness (ratio to wild type); higher = more active; in vitro selection; Mg2+ level not given
Short version: reverse-splicing fitness at least 0.007 is true (1), less is false (0).

>  <mutation.id>
A111U A120U A145C C150U C169U U176C

>  <group.label>
false (0)

$$$$
>  <mutation.id>
C82G A111U A120C A145G C150G C169G U176A

>  <group.label>
true (1)

$$$$
>  <mutation.id>
C82A A120G A145C C150A U176G

>  <group.label>
false (0)

$$$$
>  <mutation.id>
C82G A111G A120C A145U C150A

>  <group.label>
true (1)

$$$$
>  <mutation.id>
C82U A120G A145G U176C

>  <group.label>
true (1)

$$$$
>  <mutation.id>
C82A A111C A120U C150G C169A U176G

>  <group.label>
false (0)

$$$$

Exercise: # check: reverse-splicing fitness of C82U A111U A145G C150G U176C is greater than or equal to 0.007
Key: true (1)

Exercise: Assess whether reported reverse-splicing fitness for C82A A111G A120U A145U C150G C169G U176G sits at 0.007 or higher.
Key: false (0)

Exercise: Does C82U A111G A145U C150G have a reported reverse-splicing fitness of at least 0.007?
Key: true (1)

Exercise: Given C82G A111C A145G C150G C169U U176G , state whether its reverse-splicing fitness is at least 0.007.
Key: true (1)

Exercise: Is the recorded value of reverse-splicing fitness equal to or greater than 0.007 for this variant? C82U A111G A145U C150A C169G U176G
Key: false (0)
